Experimental Protocol: Human HepG2 cell viability assay in 384 well format
Type: toxicity, cell-based
Set-up: dose 125 nL, time 70.5 hour; concentration not given beside the values
Experimental Setup: HepG2 cells, read-out: Inhibition
Measured cytotoxicity at 70.5 h by item
Supply the numeric figure in %, leaving out any unit text.

| Compound | Unit Of Measure | cytotoxicity at 70.5 h |
| --- | --- | --- |
| COCCN1C(=O)C[C@H]2[C@H]1CCN2C(=O)c1ccc[nH]1 | % | -10.2 |

Measured cytotoxicity at 70.5 h of Cc1cc(NC(=O)N2CCCC(CO)C2)nn1-c1ccccc1Cl (stereo unspecified) : -1.91

Measured cytotoxicity at 70.5 h of CCOc1ccccc1CNC(=O)N(CC)C(C)c1cccnc1 (stereo unspecified) : -6.76

Measured cytotoxicity at 70.5 h of CN(Cc1ccc([S+](C)[O-])cc1)c1ccc(Br)cn1 (stereo unspecified) : -0.515

Measured cytotoxicity at 70.5 h of Cc1cc(NCCS(C)(=O)=O)nc2cc3c(cc12)CCC3 : -5.3

Measured cytotoxicity at 70.5 h of c1cc(CN2CCCN(c3ccc4cc[nH]c4n3)CC2)ccn1 : -1.4

###

Measured cytotoxicity at 70.5 h by item
Experimental Protocol: Human HepG2 cell viability assay in 384 well format
Assay type: toxicity, cell-based
Design: dose 125 nL, time 70.5 hour; concentration not given beside the values
Experimental Setup: HepG2 cells, read-out: Inhibition
Supply the numeric figure in %, leaving out any unit text.

For orientation, consider the following solved cases.
| Molecule | Measured Parameter | Reading |
| --- | --- | --- |
| CCn1cc(S(=O)(=O)N2CCN(C(=O)c3cc(Br)cs3)CC2)c(C)n1 | cytotoxicity at 70.5 h | 21.7 |
| CC(C)CCNC(=O)c1cccnc1Oc1cccnc1 | cytotoxicity at 70.5 h | -6.47 |
| COCCN1CC(=O)N(C(C)C)C(C)(C)C1 | cytotoxicity at 70.5 h | 0.521 |
| COC(=O)c1cccc(NS(=O)(=O)c2cnc(NC(C)=O)s2)c1 | cytotoxicity at 70.5 h | -1.8 |
| COCc1ncn2c1CN(C(=O)Nc1ccccc1)CC2 | cytotoxicity at 70.5 h | -4.33 |
| Cc1cc(CN2CCN(C(=O)c3sccc3C(C)C)CC2)no1 | cytotoxicity at 70.5 h | -0.556 |
| CN(C)S(=O)(=O)N1CC[C@]2(C[C@H](Oc3cccnc3)CO2)C1 | cytotoxicity at 70.5 h | -5.74 |
| Cc1cc(N2CCN(CC(=O)N(C)C)CC2)nc(-c2ccncc2)n1 | cytotoxicity at 70.5 h | 27.8 |
| CC(C)CNC(=O)c1nn(C)c(NC(=O)Cc2ccccc2)c1F | cytotoxicity at 70.5 h | -9.39 |
| N#CC1(C(=O)Nc2ccc(OC(F)F)cc2)CCCC1 | cytotoxicity at 70.5 h | 8 |

Measured cytotoxicity at 70.5 h of Cc1ccc(N2CCCN(C(=O)c3cccc4c3ccn4C)CC2)nn1 : -7.32

Measured cytotoxicity at 70.5 h of Cc1nc[nH]c1CN1CCN(C2CCOCC2)CC(C(N)=O)C1 (stereo not given) : -9.69

Measured cytotoxicity at 70.5 h of Cc1noc2ncc(C(=O)N3CCCC(n4cccn4)C3)cc12 (stereo not given) : -2.98

Measured cytotoxicity at 70.5 h of COCCn1ccc(=O)c(OCC(=O)Nc2cccc(OC)c2)c1C : 13.8

Measured cytotoxicity at 70.5 h of Cc1nc(CN2Cc3nccn3CC(COCC3CC3)C2)cs1 (stereo not given) : -0.0625

Measured cytotoxicity at 70.5 h of CC(C)COC(=O)N1CC(=O)N(CCc2ccccc2)CC(O)C1 (stereo not given) : 25.4

Measured cytotoxicity at 70.5 h of COc1cccc(CNc2cccnc2-n2cccn2)c1OC : -14.7

Measured cytotoxicity at 70.5 h of Cc1nc(C2CCCC2)sc1C(N)=O : 12

Measured cytotoxicity at 70.5 h of CC(C(=O)N(C)Cc1ccco1)n1cncn1 (stereo not given) : 1.02

Measured cytotoxicity at 70.5 h of c1csc(-c2nc(CN3CCN(c4cnccn4)CC3)co2)c1 : -18.4

Measured cytotoxicity at 70.5 h of CC(=O)c1c(O)n(C)c2ccc(C)cc12 : 1.11
